Form field: inhibition (one value per entry).
target: EIF2AK3 (human) (UniProt Q9NZJ5); assay: IMAP-FP; settings: compound 0.2 µM
Sequence (Q9NZJ5 whole entry, looked up): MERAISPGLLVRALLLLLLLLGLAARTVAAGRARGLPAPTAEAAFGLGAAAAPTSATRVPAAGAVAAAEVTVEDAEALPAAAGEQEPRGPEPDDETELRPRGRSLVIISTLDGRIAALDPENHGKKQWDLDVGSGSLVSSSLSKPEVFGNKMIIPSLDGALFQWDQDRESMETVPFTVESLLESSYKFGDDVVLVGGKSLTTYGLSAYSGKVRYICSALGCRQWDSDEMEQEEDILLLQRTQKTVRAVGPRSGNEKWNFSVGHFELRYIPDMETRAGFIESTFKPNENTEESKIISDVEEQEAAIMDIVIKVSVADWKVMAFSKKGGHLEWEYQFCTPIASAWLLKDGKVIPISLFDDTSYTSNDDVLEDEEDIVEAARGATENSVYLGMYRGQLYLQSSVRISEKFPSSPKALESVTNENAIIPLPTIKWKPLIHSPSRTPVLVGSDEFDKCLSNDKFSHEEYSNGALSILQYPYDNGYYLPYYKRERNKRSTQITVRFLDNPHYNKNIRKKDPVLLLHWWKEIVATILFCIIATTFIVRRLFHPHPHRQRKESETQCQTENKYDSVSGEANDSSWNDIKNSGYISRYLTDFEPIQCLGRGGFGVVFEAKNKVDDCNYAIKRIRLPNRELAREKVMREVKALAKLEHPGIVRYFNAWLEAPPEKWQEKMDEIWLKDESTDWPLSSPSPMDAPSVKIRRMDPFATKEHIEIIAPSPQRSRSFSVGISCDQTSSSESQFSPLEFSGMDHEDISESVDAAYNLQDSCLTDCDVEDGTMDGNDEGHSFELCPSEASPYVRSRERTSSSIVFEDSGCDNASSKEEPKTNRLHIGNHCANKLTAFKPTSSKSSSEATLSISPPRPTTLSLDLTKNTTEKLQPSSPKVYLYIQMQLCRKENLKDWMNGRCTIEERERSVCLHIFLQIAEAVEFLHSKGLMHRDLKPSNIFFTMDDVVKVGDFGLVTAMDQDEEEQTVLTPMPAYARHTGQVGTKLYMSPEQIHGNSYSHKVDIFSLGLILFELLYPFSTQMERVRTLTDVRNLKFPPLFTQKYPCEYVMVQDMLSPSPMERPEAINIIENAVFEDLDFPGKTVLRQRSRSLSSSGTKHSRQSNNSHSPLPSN
assayEndpoint: inhibition (%)

substanceSmiles: CNC(=O)c1cc(Oc2ccc(NC(=O)Nc3ccc(Cl)c(C(F)(F)F)c3)cc2)ccn1
studyTarget: EIF2AK3 (human) (UniProt Q9NZJ5)
measValue: 4.5

substanceSmiles: Cc1ccc(Nc2nccc(N(C)c3ccc4c(C)n(C)nc4c3)n2)cc1S(N)(=O)=O
studyTarget: EIF2AK3 (human) (UniProt Q9NZJ5)
measValue: -17

substanceSmiles: COc1cc2c(Oc3ccc4[nH]c(C)cc4c3F)ncnc2cc1OCCCN1CCCC1
studyTarget: EIF2AK3 (human) (UniProt Q9NZJ5)
measValue: -16.8

substanceSmiles: CCN(CC)CCNC(=O)c1c(C)[nH]c(/C=C2\C(=O)Nc3ccc(F)cc32)c1C
studyTarget: EIF2AK3 (human) (UniProt Q9NZJ5)
measValue: -15
